# targetEntity: NADPH oxidase 2 (Homo sapiens) (UniProt P04839)
# Sequence (P04839 whole entry, looked up): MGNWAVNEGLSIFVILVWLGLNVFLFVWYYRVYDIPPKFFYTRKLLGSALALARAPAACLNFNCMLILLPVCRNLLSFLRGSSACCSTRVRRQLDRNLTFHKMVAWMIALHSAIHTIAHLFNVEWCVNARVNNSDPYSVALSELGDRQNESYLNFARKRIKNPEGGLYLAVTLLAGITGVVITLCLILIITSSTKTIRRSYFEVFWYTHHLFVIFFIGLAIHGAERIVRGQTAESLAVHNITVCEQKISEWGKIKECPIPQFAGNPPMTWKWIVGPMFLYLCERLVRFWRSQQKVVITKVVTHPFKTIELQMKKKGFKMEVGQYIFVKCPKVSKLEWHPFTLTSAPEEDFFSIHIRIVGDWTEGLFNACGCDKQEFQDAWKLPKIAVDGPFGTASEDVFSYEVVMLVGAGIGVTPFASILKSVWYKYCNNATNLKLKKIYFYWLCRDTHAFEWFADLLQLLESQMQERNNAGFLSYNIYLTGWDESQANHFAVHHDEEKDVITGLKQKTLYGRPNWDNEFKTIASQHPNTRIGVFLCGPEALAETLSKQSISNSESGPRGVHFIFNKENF
# protocolText: NOX2-dependent H2O2 signal modulators, primary screen, NOX inhibitor project, cell-based, HEK293-NOX2, PMA-stimulated, Amplex Red fluorescence (AID 1159); further: test concentration not given here
# testParameters: 45 min, higher = more signal, called active from +8 up or from −8 down
The reader will find reported z-score values listed item by item below.
Give your answer as a number; write no unit.

-- ask For the compound `COc1ccc(C(=O)Nc2ccc(CN3C(=O)[C@@]4(O[C@@H](CC(=O)N5CCC[C@H]5CO)[C@H]([Si](C)(C)c5ccc(OC)cc5)[C@H]4C)c4ccccc43)cc2)cc1` , give its measured z-score value.
-- reply 1.21

-- ask For the compound `CN(C)C(=O)[C@]1(Cc2ccccc2CN=[N+]=[N-])N=C(c2ccc(OCCCO)cc2)O[C@@H]1c1ccccc1CN=[N+]=[N-]` , give its measured z-score value.
-- reply -3.36

-- ask For the compound `[N-]=[N+]=NCc1ccccc1[C@H]1OC(c2ccc(OCCCO)cc2)=N[C@@]1(Cc1ccccc1)C(=O)NCc1ccccc1` , give its measured z-score value.
-- reply 1.08

-- ask For the compound `COc1ccc([Si](C)(C)[C@H]2[C@H](CC(=O)N3CCC[C@H]3CO)O[C@@]3(C(=O)N(Cc4cccc(N5C(=O)c6cccc7cccc5c67)c4)c4ccccc43)[C@@H]2C)cc1` , give its measured z-score value.
-- reply 1.35

-- ask For the compound `O=C1c2ccccc2[C@](Cc2ccccc2I)(C(=O)NC2CC2)[C@H](c2ccc(CO)cc2)N1Cc1ccccc1` , give its measured z-score value.
-- reply -0.163

***
-- ask For the compound CC(CO)N1C(=O)[C@@H]2C3C(=O)OCCC/C=C\[C@H]3OC23C=CCN(c2ccc4ccccc4c2)C(=O)[C@@H]13 (stereo partly specified) , give its measured z-score value.
-- reply 1.03

-- ask For the compound CN1C(=O)C2C=CC(C(O)c3ccc(I)cc3)N(N3CCCCC3)C2C1=O (stereo unspecified) , give its measured z-score value.
-- reply -0.229

-- ask For the compound O=C1OCCC/C=C\[C@H]2OC34C=CCN(Cn5nnc6ccccc65)C(=O)[C@H]3N(CCO)C(=O)[C@@H]4C12 (stereo partly specified) , give its measured z-score value.
-- reply 1.41

-- ask For the compound `O=C1c2ccccc2[C@](Cc2ccccc2I)(C(=O)NC2CC2)[C@H](c2ccc(CO)cc2)N1C1CCCCC1` , give its measured z-score value.
-- reply 0.478

-- ask For the compound `[N-]=[N+]=NCc1ccccc1C[C@]1(C(=O)O)N=C(c2ccc(OCCCO)cc2)O[C@H]1c1ccccc1N=[N+]=[N-]` , give its measured z-score value.
-- reply -2.14

-- ask For the compound O=C1NC(=O)C2C1C=CC(C(O)C(c1ccccc1)c1ccccc1)N2Nc1ccc(Cl)cc1Cl (stereo unspecified) , give its measured z-score value.
-- reply -0.421

-- ask For the compound `COCCCN1C(=O)[C@@]2(Cc3ccccc31)c1ccccc1C(=O)N(Cc1ccccc1C(F)(F)F)[C@H]2c1ccc(CO)cc1` , give its measured z-score value.
-- reply -0.767

-- ask For the compound `Cc1ccc(S[C@]2(C(=O)NC3CC3)CC(=O)N(C3Cc4ccccc4C3)[C@@H]2c2ccc(CO)cc2)cc1` , give its measured z-score value.
-- reply -0.655

-- ask For the compound `CC[C@@H]1C=C(C(=O)O)[C@H](c2ccco2)N1S(=O)(=O)c1ccc(C)cc1` , give its measured z-score value.
-- reply 0.152

-- ask For the compound `C=CC[C@@]1(C(N)=O)N=C(c2ccc(OCCCO)cc2)O[C@@H]1c1ccccc1CN=[N+]=[N-]` , give its measured z-score value.
-- reply -0.934

-- ask For the compound `COc1ccc(CCN2C(=O)[C@@]3(Cc4ccccc42)c2ccccc2C(=O)N(Cc2ccccc2C(F)(F)F)[C@H]3c2ccc(CO)cc2)cc1` , give its measured z-score value.
-- reply -1.4
